Molecular target: T1, HCoV-OC43 Nucleocapsid (N) protein (2X-StrepTag tagged) (HCoV-OC43, UniProt P33469 1-448)
T1 construct: also called rN; HCoV-OC43 rN; source: HEK293-FT, transfected, in crude lysate; not shown: 2X-StrepTag, C-terminal, kept
T1 sequence: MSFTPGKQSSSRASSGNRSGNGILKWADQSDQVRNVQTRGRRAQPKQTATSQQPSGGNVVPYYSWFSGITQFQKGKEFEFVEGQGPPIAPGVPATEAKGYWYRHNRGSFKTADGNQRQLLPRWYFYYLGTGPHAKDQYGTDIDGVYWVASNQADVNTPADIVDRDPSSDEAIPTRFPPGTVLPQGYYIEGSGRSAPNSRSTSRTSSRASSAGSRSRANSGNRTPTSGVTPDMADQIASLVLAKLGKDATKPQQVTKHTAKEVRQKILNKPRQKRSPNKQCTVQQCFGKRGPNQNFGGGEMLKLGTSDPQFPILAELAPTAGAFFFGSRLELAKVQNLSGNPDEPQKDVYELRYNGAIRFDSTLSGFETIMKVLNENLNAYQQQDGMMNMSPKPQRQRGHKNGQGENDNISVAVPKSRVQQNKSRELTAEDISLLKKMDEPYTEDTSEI
Assay: BLI
Conditions: one partner purified
Binary call on koff with cut-off 0.01 s⁻¹: strictly below means Met, and equality or higher means Not met.

Prompt: Please indicate whether the reported koff of CCL5 (ligand, recombinant human CCL5; source: bought: PeproTech) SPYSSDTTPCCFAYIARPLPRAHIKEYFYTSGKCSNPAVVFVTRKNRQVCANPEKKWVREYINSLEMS is strictly below 0.01 s⁻¹.
Response: Not met

Prompt: Please indicate whether the reported koff of CCL21 (ligand, recombinant human CCL21; source: bought: PeproTech) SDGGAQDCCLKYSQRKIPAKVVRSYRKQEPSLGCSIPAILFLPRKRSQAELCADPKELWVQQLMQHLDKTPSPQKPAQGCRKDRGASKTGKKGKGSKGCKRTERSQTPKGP is strictly below 0.01 s⁻¹.
Response: Not met

Prompt: Please indicate whether the reported koff of CXCL11 (ligand, recombinant human CXCL11; source: bought: PeproTech) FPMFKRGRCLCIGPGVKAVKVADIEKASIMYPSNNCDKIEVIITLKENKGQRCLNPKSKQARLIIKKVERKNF is strictly below 0.01 s⁻¹.
Response: Not met

Prompt: Please indicate whether the reported koff of CCL28 (ligand, recombinant human CCL28; source: bought: PeproTech) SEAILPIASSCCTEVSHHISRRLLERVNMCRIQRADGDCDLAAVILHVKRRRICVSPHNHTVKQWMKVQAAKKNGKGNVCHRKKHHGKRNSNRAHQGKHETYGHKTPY is strictly below 0.01 s⁻¹.
Response: Met

Prompt: Please indicate whether the reported koff of CXCL9 (ligand, recombinant human CXCL9; source: bought: PeproTech) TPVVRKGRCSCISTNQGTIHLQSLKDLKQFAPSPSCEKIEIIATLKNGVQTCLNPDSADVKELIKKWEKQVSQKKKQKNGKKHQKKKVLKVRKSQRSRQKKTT is strictly below 0.01 s⁻¹.
Response: Met

Prompt: Please indicate whether the reported koff of CXCL13 (ligand, recombinant human CXCL13; source: bought: PeproTech) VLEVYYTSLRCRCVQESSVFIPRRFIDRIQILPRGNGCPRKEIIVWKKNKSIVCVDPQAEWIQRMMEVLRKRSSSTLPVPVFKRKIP is strictly below 0.01 s⁻¹.
Response: Met

Prompt: Please indicate whether the reported koff of CXCL14 (ligand, recombinant human CXCL14; source: bought: PeproTech) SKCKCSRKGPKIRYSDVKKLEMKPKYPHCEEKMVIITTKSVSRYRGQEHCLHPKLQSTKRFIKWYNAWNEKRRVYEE is strictly below 0.01 s⁻¹.
Response: Met

Prompt: Please indicate whether the reported koff of CCL25 (ligand, recombinant human CCL25; source: bought: PeproTech) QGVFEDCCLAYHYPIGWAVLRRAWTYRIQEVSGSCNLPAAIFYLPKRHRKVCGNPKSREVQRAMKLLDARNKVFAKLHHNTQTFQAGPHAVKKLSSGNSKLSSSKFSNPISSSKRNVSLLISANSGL is strictly below 0.01 s⁻¹.
Response: Met

Prompt: Please indicate whether the reported koff of CCL26 (ligand, recombinant human CCL26; source: bought: PeproTech) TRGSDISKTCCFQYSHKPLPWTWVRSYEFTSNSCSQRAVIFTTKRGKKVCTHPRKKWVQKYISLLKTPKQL is strictly below 0.01 s⁻¹.
Response: Not met
